- subject_of_test: T1, human A-beta(1-40) peptide, monomeric (BAM) (human, biotin at the C-terminus in capture ELISA, SPR and TR-FRET; not biotinylated where coated directly (Example 7))
- T1 construct: synthetic peptide (Anaspec), TFA/HFIP treated to give monomer; also called monomeric A-beta
- protocol_summary: BAM ELISA
pEC50: −log10 of the molar value.
test_readout: pEC50

| binder | value |
| --- | --- |
| reference VHH 2G6 (VHH, from WO2006/40153) VHH: QVKLEESGGGLVQPGGSLRLSCAASGFTFSNYWMYWVRQAPGKGLEWVSTISPRAANTYYADSVKGRFTISRDNAKNTLYLQMNSLEPDDTALYYCAKSLRYRDRPQSSDFLFWRQGTQVTVSS | 7.01 |
| ABII14D4 (VHH) VHH: EVQLVESGGGLVQAGGSLRLSCAASGRTFSTYNMAWFRHAPGKEREFVAAISRSGGSTYYVDSVKGRFTISRDNAKNTVYLQMNSLKPEDTAIYYCAAAPRGRSIVTTATYDYWGQGTQVTVSS | 6.91 |
| ABII5D2 (VHH) VHH: EVQLVESGGGLVQAGGSLRLSCAASGRTFSSYAMGWVRQAPGKERELVATISQSGGLRSYADSVKGRFTISRDNAKNTVYLQMNSLTPGDTAVYYCAAQARATAWSPQRVDYWGQGTQVTVSS | 7.27 |
| ABII35D2 (VHH) VHH: EVQLVESGGGLVQAGGSLRLSCVASGLTFSSYNMGWFRQAPGKEREFVAAISRSGGSTYYTDSVKGRFTISRDSSKNTVYLQMNSLKPEDTADYYCAAALFGSAINLLSEYRYWGQGTQVTVSS | 7.43 |
| ABII60A10 = ABII050 (VHH) VHH: EVQLVESGGGLVQAGGSLRLSCAASGRTFNNYNMGWFRQAPGKEREFVAAVSRSGVSTYYADSVKGRFTISRDNAKNAVYLQMNSLKPEDTAIYYCGAAYRGTAINVRRSYDSWGQGTQVTVSS | 8.31 |
| ABII61F6 (VHH) VHH: EVQLVESGGGLVQTGGSLRLSCAASGSTVNINAMGWYRQAPGKQRELVAIINKRGVTNYADSTEGRFTISRDNSKRTLYLQMNSLKPEDTAVYYCNAVVGRYGRTYGYWGQGTQVTVSS | 6.33 |

[P] ABII42E10 (VHH) VHH: EVQLVESGGGLVQPGGSLRLSCAASGLTFTLYTMGWFRQAPGKEREFVAAISASGGTTYYADSVKGRFALSRDNAKNTVFLQMNTLKPEDTAEYLCAAAFRGFAINTPTSYNYWGQGTQVTVSS
[Q] ABII60G11 (VHH) VHH: EVQLVESGGGSEQAGGSLRLSCATSGRAFSVYAWFRQAPGKERTFVAAVAWVGGSTFYSDSVKGRFTISRDNAKNTVFLHMNSLKPEDTAAYYCAARLYGGRWYNSPRVDDFEYWGQGTQVTVSS
Parameter check: reported pEC50 is higher for which label, P or Q ? Identify your selection by its label.
P

[1] ABII42B10 (VHH) VHH: EVQLVESGGGLVQRGGSLRLSCAASGRTFSNLNMGWFRQAPGKEREFQAAISRSGGTTYYADSVKGRFTISRDNAKSTVFLQMNSLKPEDTAVYYCAAASPGGPINYGRAYDSWGQGTQVTVSS
[2] ABII1E11 (VHH) VHH: EVQLVESGGGLVQPGGSLRLSCAASGRTFSDYNMGWFHQAPGKEREIVAAISRSGRSTYYTVSVEGRFTISRDNAKNTVDLEMNSLKPEDTGIYYCAANSAGRAINLPLYKYWGQGTQVTVSS
Param metric = pEC50; output whichever of 1 , 2 has the minimum value. Identify your selection by its label.
2
(2: 7.56, 1: 7.97)
